assay: Pharmacokinetic parameters after oral or intravenous administration; assay type: in vivo; details: rat, plasma; rats, Oral (PO), 50 mg/kg; read-out: Bioavailability (F %)
recorded-endpoint: bioavailability (%)
// units = %; emit number, no label

Reported bioavailability, compound O=C(Cc1c[nH]c2ccc(Cl)cc12)Nc1nc2ccc(N3CCOCC3)cc2s1 : ____
73.9

----------
test: Pharmacokinetic parameters after oral or intravenous administration; assay type: in vivo; conditions: rat, plasma; rats, Oral (PO), 100 mg/kg
recorded-endpoint: half-life

Entry O=C(Cc1c[nH]c2ccc(Cl)cc12)Nc1nc2ccccc2s1 [Comparative Example 1, reference compound] : reported half-life = ?
6.8 h
